- System: fruit fly (Drosophila melanogaster) adults
- Assay summary: Adult fruit fly mortality on artificial diet (DROSME)
- Format: in vivo
- Condition context: 72 h, 4000 μg/ml, mortality three days after treatment, read-out: DROSME: % mortality against adult fruit fly on artificial diet
Attribute measured: mortality at 4000 µg/mL

Consider the reported mortality at 4000 µg/mL for these molecules:
Tell me mortality at 4000 µg/mL reported for "c1ccc(CCN2CCN(Cc3ccccc3-c3ccccc3)CC2)cc1" 26 to 49%

Tell me mortality at 4000 µg/mL reported for "COc1ccc(CN2CCN(CCc3ccccc3C(F)(F)F)CC2)c(Cl)c1OC" 1 to 25%

Tell me mortality at 4000 µg/mL reported for "FC(F)(F)c1ccccc1CCN1CCN(Cc2ccc3c(c2)OCO3)CC1" 50 to 100%

Tell me mortality at 4000 µg/mL reported for "O=C(COc1ccccc1)N1CCN(C(=O)OCc2ccccc2)CC1" 1 to 25%

Tell me mortality at 4000 µg/mL reported for "O=C(c1ccc(Cl)cc1)N1CCN(Cc2ccccc2)CC1" 1 to 25%

Tell me mortality at 4000 µg/mL reported for "FC(F)(F)Oc1cccc(CN2CCN(CCc3ccccc3)CC2)c1" 26 to 49%

---
Tell me mortality at 4000 µg/mL reported for "N#Cc1cccc(CN2CCN(CCc3ccccc3)CC2)c1" 26 to 49%

Tell me mortality at 4000 µg/mL reported for "FC(F)(F)c1ccccc1CCN1CCN(Cc2ccc(Cl)s2)CC1" 1 to 25%

Just for reference, patent US8338430B2 is where these values come from.
